Counter-ions that a name gives are not always drawn.
Recorded melting point values for a group of molecules are listed next.

INSERT INTO assay_data (molecule, readout_kind, measured) VALUES
  ('CNC(=O)COC(=O)NCCC1CCN(c2cc3ccccc3cn2)CC1', 'melting point', '156 to 158 °C');

Return melting point for the following molecule: CNC(=O)COC(=O)NCCC1CCN(c2ccc3ccccc3n2)CC1
125 to 128 °C

Return melting point for the following molecule: CNC(=O)COC(=O)NCC1CCN(c2nccc3ccccc23)CC1 (as salt: hydrochloride)
208 to 212 °C (dec.)

Return melting point for the following molecule: NC(=O)COC(=O)NCCC1CCN(c2cccc(C(F)(F)F)c2)CC1
140 to 142 °C

Return melting point for the following molecule: CNC(=O)COC(=O)NCCC1(F)CCN(c2ccc3ccccc3n2)CC1
147 to 149 °C

Return melting point for the following molecule: NC(=O)COC(=O)NCCC1CCN(c2nccc3cc(F)ccc23)CC1
135 to 139 °C

Return melting point for the following molecule: NC(=O)COC(=O)NCCC1CCN(c2ccc3ccccc3n2)CC1
135 to 137 °C

Return melting point for the following molecule: CNC(=O)COC(=O)NCCN1CCN(c2cccc3ccccc23)CC1 (as salt: hydrochloride)
166 °C

* * *

Recorded melting point values for a group of compounds are listed next.
Structures can show the parent of a compound that is named as a salt.

Examples from the recorded data:
INSERT INTO assay_data (compound, measured) VALUES
  ('CNC(=O)COC(=O)NCCC1CCN(c2cccc(CC(C)C)n2)CC1', '97 to 99 °C'),
  ('NC(=O)COC(=O)NCCC1CCN(c2ccc3cc(Cl)ccc3n2)CC1', '189 to 191 °C'),
  ('NC(=O)COC(=O)NCC1CCN(c2cccc(-c3ccccc3)n2)CC1', '131 to 132 °C');

Return melting point for the following compound: CNC(=O)COC(=O)NCCC1CCN(c2cccc(C)n2)CC1 (as salt: hydrochloride)
95 to 100 °C

Return melting point for the following compound: CNC(=O)COC(=O)NCCC1CCN(c2ccc3c(Cl)cccc3n2)CC1
158 to 162 °C

Return melting point for the following compound: CNC(=O)COC(=O)NCCC1CCN(c2cncc3ccccc23)CC1 (as salt: hydrochloride)
205 to 210 °C
